assay: Inhibition of rat bladder dome cGMP phosphodiesterase
Readout Label: pIC50
Schema: pIC50 number; meaning minus log10 of the concentration expressed in molar units.

Kindly indicate its recorded pIC50. Item: NC1=NC(=O)C2N=CN([C@@H]3O[C@@H]4COP(=O)(O)O[C@H]4[C@H]3OC(=O)c3ccc(C(=O)c4ccccc4)cc3)C2=N1 (stereo partly specified) 6.52

---

assay: Inhibition of rat bladder dome cAMP phosphodiesterase
Readout Label: IC50
State the result as a value with its unit after it.

Kindly indicate its recorded IC50. Item: NC1=NC(=O)C2N=CN([C@@H]3O[C@@H]4COP(=O)(O)O[C@H]4[C@H]3OC(=O)c3ccc(C(=O)c4ccccc4)cc3)C2=N1 (stereo partly specified) 15.8 µM
